# Target Of Assay: Neutrophil elastase (Homo sapiens)
# Sequence (P08246 whole entry): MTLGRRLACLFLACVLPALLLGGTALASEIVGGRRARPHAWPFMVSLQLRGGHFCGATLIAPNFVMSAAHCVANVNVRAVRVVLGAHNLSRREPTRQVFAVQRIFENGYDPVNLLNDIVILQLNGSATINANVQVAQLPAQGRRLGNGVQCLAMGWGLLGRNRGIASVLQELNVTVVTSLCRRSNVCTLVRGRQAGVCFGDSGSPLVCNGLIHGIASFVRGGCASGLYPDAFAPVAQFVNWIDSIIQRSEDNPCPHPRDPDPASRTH
# Procedure Details: Binding affinity for purified Human neutrophil elastase was determined in vitro.
Exercise: for every item that follows, state its recorded Ki.

Solved entries (count: 2):
>>> result("CC(C)[C@H](NC(=O)OC(C)(C)C)C(=O)N1CCC[C@H]1C(=O)NC(C)(C)C(=O)C(F)(F)C(F)(F)F")
"> 50 µM"
>>> result("CC(=O)O/C(=C(/NC(=O)[C@@H]1CCCN1C(=O)[C@@H](NC(=O)N1CCOCC1)C(C)C)C(C)C)C(F)(F)F")
"6.3 µM"

Let us move to another entry and its Ki.
CC(=O)O/C(=C(/NC(=O)[C@@H]1CCCN1C(=O)[C@@H](NC(=O)c1ccc(C(=O)N2CCOCC2)cc1)C(C)C)C(C)C)C(F)(F)C(F)(F)F on Neutrophil elastase (Homo sapiens) gives Ki = > 2 µM
